Recorded pEC50 for the following molecules
# targetOrSystem: Protein kinase C epsilon type (Homo sapiens)
# Sequence (Q02156 whole entry): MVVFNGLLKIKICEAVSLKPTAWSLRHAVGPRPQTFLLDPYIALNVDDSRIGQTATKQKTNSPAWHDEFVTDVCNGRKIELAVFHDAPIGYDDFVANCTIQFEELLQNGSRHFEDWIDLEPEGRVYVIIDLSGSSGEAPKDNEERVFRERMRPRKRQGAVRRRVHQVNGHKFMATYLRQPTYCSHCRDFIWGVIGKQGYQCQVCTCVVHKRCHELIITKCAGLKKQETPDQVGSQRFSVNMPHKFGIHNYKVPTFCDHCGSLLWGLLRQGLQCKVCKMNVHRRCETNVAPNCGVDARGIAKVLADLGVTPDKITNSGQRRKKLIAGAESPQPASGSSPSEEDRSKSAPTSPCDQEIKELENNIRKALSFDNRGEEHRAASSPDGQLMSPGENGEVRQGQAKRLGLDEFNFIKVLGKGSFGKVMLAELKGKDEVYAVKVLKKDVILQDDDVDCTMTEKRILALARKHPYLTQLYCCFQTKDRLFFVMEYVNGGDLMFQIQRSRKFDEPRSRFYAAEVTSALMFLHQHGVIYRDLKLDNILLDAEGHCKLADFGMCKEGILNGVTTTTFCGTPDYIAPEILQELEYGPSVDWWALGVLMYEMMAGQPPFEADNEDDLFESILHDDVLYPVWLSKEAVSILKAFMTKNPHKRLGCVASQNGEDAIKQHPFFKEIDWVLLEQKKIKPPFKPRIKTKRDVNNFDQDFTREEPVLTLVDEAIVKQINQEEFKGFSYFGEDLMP
# assayOverview: Binding affinity to PKCepsilon C1B subdomain after 1 hr by fluorescence quenching analysis
pEC50: −log10 of the molar value.
measureName: pEC50

smilesinput=CCCCOc1ccc(/C=C/c2cc(/C=C/c3ccc(OCCCC)c(OC)c3)on2)cc1OC measurename=pEC50 assayresult=4.63
smilesinput=COc1cc(/C=C/c2cc(/C=C/c3ccc(O)c(OC)c3)[nH]n2)ccc1O measurename=pEC50 assayresult=4.73
smilesinput=CCCCOc1ccc(/C=C/c2cc(/C=C/c3ccc(O)c(OC)c3)n[nH]2)cc1OC measurename=pEC50 assayresult=4.79
smilesinput=COc1cc(/C=C/c2cc(/C=C/c3ccc(O)c(OC)c3)on2)ccc1O measurename=pEC50 assayresult=4.93
